Values were extracted from PubChem BioAssay AID1963965.

test system: 996289-038-R-J1-PDC spheroid viability; assay: Anticancer human tumor 996289-038-R-J1-PDC patient-derived colon adenocarcinoma cell line growth inhibition [PI3K]; settings: second compound 3.16 µM; first compound 0.316 µM; hits give low values; spheroids with HUVEC and MSC
test-readout: viability, T/C (%)
One number for each entry, in %.

Some solved cases for reference:
>  <compound>
C=CC(=O)N1CCN(c2nc(=O)n(-c3c(C)ccnc3C(C)C)c3nc(-c4c(O)cccc4F)c(F)cc23)C(C)C1 (stereo not given) + Cc1nc(NC(=O)N2CCCC2C(N)=O)sc1-c1ccnc(C(C)(C)C(F)(F)F)c1

>  <unit-info>
%

>  <endpoint-result>
74.7

$$$$
>  <compound>
C=CC(=O)N1CCN(c2nc(=O)n(-c3c(C)ccnc3C(C)C)c3nc(-c4c(O)cccc4F)c(F)cc23)C(C)C1 (stereo not given) + CC(Nc1ncnc2nc[nH]c12)c1cc2cccc(Cl)c2c(=O)n1-c1ccccc1

>  <unit-info>
%

>  <endpoint-result>
88.3

$$$$

Give measured viability, T/C for every item shown.
1. C#Cc1c(F)ccc2cc(O)cc(-c3ncc4c(N5CC6CCC(C5)N6)nc(OCC56CCCN5CC(F)C6)nc4c3F)c12 (stereo not given) + CC(Nc1ncnc2nc[nH]c12)c1cc2cccc(Cl)c2c(=O)n1-c1ccccc1
2. CNC(=O)c1ccc(N2C(=S)N(c3ccc(C#N)c(C(F)(F)F)c3)C(=O)C2(C)C)cc1F + CC(Nc1ncnc2nc[nH]c12)c1cc2cccc(Cl)c2c(=O)n1-c1ccccc1
3. C[C@@H](NC(=O)c1ncnc(N)c1Cl)c1ncc(C(=O)Nc2cc(C(F)(F)F)c(Cl)cn2)s1 + CC(Nc1ncnc2nc[nH]c12)c1cc2cccc(Cl)c2c(=O)n1-c1ccccc1

1. 63.2
2. 89.6
3. 115

###

system: 996289-038-R-J1-PDC spheroid viability; test: Anticancer human tumor 996289-038-R-J1-PDC cell line growth inhibition [PI3K]; settings: second compound 10 µM; first compound 0.316 µM; hits give low values; spheroids with HUVEC and MSC;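 also: luminescence used as a proxy for viable cell amount; spheroids exposed to compounds for seven days before viability read; percent viability relative to DMSO vehicle control as 100%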
test-readout: viability, T/C (%)
Answers are plain numbers, in %.

>  <compound>
CNC(=O)c1ccc(N2C(=S)N(c3ccc(C#N)c(C(F)(F)F)c3)C(=O)C2(C)C)cc1F + Cc1nc(NC(=O)N2CCCC2C(N)=O)sc1-c1ccnc(C(C)(C)C(F)(F)F)c1

>  <viability, T/C, %>
49.6

$$$$
>  <compound>
CC1(C)CCC(CN2CCN(c3ccc(C(=O)NS(=O)(=O)c4ccc(NCC5CCOCC5)c([N+](=O)[O-])c4)c(Oc4cnc5[nH]ccc5c4)c3)CC2)=C(c2ccc(Cl)cc2)C1 + Cc1nc(NC(=O)N2CCCC2C(N)=O)sc1-c1ccnc(C(C)(C)C(F)(F)F)c1

>  <viability, T/C, %>
42.2

$$$$
>  <compound>
CCN1CCN(Cc2ccc(Nc3ncc(F)c(-c4cc(F)c5nc(C)n(C(C)C)c5c4)n3)nc2)CC1 + Cc1nc(NC(=O)N2CCCC2C(N)=O)sc1-c1ccnc(C(C)(C)C(F)(F)F)c1

>  <viability, T/C, %>
29.6

$$$$
>  <compound>
C#Cc1c(F)ccc2cc(O)cc(-c3ncc4c(N5CC6CCC(C5)N6)nc(OCC56CCCN5CC(F)C6)nc4c3F)c12 (stereo not given) + Cc1nc(NC(=O)N2CCCC2C(N)=O)sc1-c1ccnc(C(C)(C)C(F)(F)F)c1

>  <viability, T/C, %>
22.2

$$$$

Can you share its viability, T/C? I mean this compound: C[C@@H](NC(=O)c1ncnc(N)c1Cl)c1ncc(C(=O)Nc2cc(C(F)(F)F)c(Cl)cn2)s1 + CC(Nc1ncnc2nc[nH]c12)c1cc2cccc(Cl)c2c(=O)n1-c1ccccc1
102

###

tested on: 996289-038-R-J1-PDC spheroid viability; test: Anticancer human tumor 996289-038-R-J1-PDC cell line growth inhibition [PI3K]; conditions: second compound 3.16 µM; first compound 0.316 µM; hits give low values; spheroids with HUVEC and MSC;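 also: luminescence used as a proxy for viable cell amount; spheroids exposed to compounds for seven days before viability read; percent viability relative to DMSO vehicle control as 100%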
test-readout: viability, T/C (%)
One number for each entry, in %.

# annotated cases, reported viability, T/C shown
>  <compound>
CC1(C)CCC(Nc2ncc(C(F)(F)F)c(-c3c[nH]c4c(P(C)(C)=O)c(C#N)ccc34)n2)CN1 (stereo not drawn) + Cc1nc(NC(=O)N2CCCC2C(N)=O)sc1-c1ccnc(C(C)(C)C(F)(F)F)c1

>  <viability, T/C / %>
55.9

$$$$
>  <compound>
CC(Cn1ccc(-c2ccc(C#N)c(Cl)c2)n1)NC(=O)c1cc(C(C)O)[nH]n1 (stereo not drawn) + CC(Nc1ncnc2nc[nH]c12)c1cc2cccc(Cl)c2c(=O)n1-c1ccccc1

>  <viability, T/C / %>
96.7

$$$$

What does the data say about its viability, T/C? Entry: CCN1CCN(Cc2ccc(Nc3ncc(F)c(-c4cc(F)c5nc(C)n(C(C)C)c5c4)n3)nc2)CC1 + CC(Nc1ncnc2nc[nH]c12)c1cc2cccc(Cl)c2c(=O)n1-c1ccccc1
81

###

System: 996289-038-R-J1-PDC spheroid viability
Assay: Anticancer human tumor 996289-038-R-J1-PDC cell line growth inhibition [PI3K];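 also: luminescence used as a proxy for viable cell amount; spheroids exposed to compounds for seven days before viability read; percent viability relative to DMSO vehicle control as 100%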
Conditions: second compound 0.1 µM; first compound 0.1 µM; hits give low values; spheroids with HUVEC and MSC
Description: Combinatorial screen of targeted agents with the PI3K inhibitors inavolisib, alpelisib, duvelisib, and copanlisib in multi-cell type tumor spheroids A high-throughput screen of multi-cell type tumor spheroids was designed to identify active combinations of targeted small molecules and PI3K pathway inhibitors. […] Compounds. […] If the clinical Cmax for an agent had not been determined, the highest concentration tested was 10 microM. […]
Entries whose viability, T/C is below 80% take 1; entries at or above 80% take 0.

Record excerpt, results attached:
>  <molecule>
CNC(=O)c1ccc(N2C(=S)N(c3ccc(C#N)c(C(F)(F)F)c3)C(=O)C2(C)C)cc1F + Cc1nc(NC(=O)N2CCCC2C(N)=O)sc1-c1ccnc(C(C)(C)C(F)(F)F)c1

>  <qualitative-label>
0

$$$$
>  <molecule>
CCN1CCN(Cc2ccc(Nc3ncc(F)c(-c4cc(F)c5nc(C)n(C(C)C)c5c4)n3)nc2)CC1 + Cc1nc(NC(=O)N2CCCC2C(N)=O)sc1-c1ccnc(C(C)(C)C(F)(F)F)c1

>  <qualitative-label>
1

$$$$
>  <molecule>
CC(C)NCC(C(=O)N1CCN(c2ncnc3c2C(C)CC3O)CC1)c1ccc(Cl)cc1 (stereo not given) + COc1c(OCCCN2CCOCC2)ccc2c3n(c(=NC(=O)c4cnc(N)nc4)nc12)CCN3

>  <qualitative-label>
1

$$$$
>  <molecule>
C#Cc1c(F)ccc2cc(O)cc(-c3ncc4c(N5CC6CCC(C5)N6)nc(OCC56CCCN5CC(F)C6)nc4c3F)c12 (stereo not given) + CC(Nc1ncnc2nc[nH]c12)c1cc2cccc(Cl)c2c(=O)n1-c1ccccc1

>  <qualitative-label>
1

$$$$

Shifting focus to the molecule that follows.
Bench note: check whether Cn1nccc1Nc1nccc(-c2ccn(C(CO)c3ccc(Cl)c(F)c3)c(=O)c2)n1 (stereo not given) + COc1c(OCCCN2CCOCC2)ccc2c3n(c(=NC(=O)c4cnc(N)nc4)nc12)CCN3 shows viability, T/C below 80%
1

###

tested on: 996289-038-R-J1-PDC spheroid viability; test: Anticancer human tumor 996289-038-R-J1-PDC cell line growth inhibition [PI3K]; settings: second compound 0.1 µM; first compound 0.01 µM; hits give low values; spheroids with HUVEC and MSC;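 also: luminescence used as a proxy for viable cell amount; spheroids exposed to compounds for seven days before viability read; percent viability relative to DMSO vehicle control as 100%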
test-readout: viability, T/C (%)
Numbers only, in %.

>  <molecule>
CC(=O)c1c(C)c2cnc(Nc3ccc(N4CCNCC4)cn3)nc2n(C2CCCC2)c1=O + Cc1nc(NC(=O)N2CCCC2C(N)=O)sc1-c1ccnc(C(C)(C)C(F)(F)F)c1

>  <unit-info>
%

>  <viability, T/C>
91.7

$$$$

Please give viability, T/C, item by item, for the list that follows.
1. Cn1ncnc1[C@H]1c2n[nH]c(=O)c3cc(F)cc(c23)N[C@@H]1c1ccc(F)cc1 + COc1c(OCCCN2CCOCC2)ccc2c3n(c(=NC(=O)c4cnc(N)nc4)nc12)CCN3
2. CCN1CCN(Cc2ccc(Nc3ncc(F)c(-c4cc(F)c5nc(C)n(C(C)C)c5c4)n3)nc2)CC1 + Cc1nc(NC(=O)N2CCCC2C(N)=O)sc1-c1ccnc(C(C)(C)C(F)(F)F)c1
3. CCN1CCN(Cc2ccc(Nc3ncc(F)c(-c4cc(F)c5nc(C)n(C(C)C)c5c4)n3)nc2)CC1 + COc1c(OCCCN2CCOCC2)ccc2c3n(c(=NC(=O)c4cnc(N)nc4)nc12)CCN3
4. CC(C)n1nc(-c2ccc3oc(N)nc3c2)c2c(N)ncnc21 + COc1c(OCCCN2CCOCC2)ccc2c3n(c(=NC(=O)c4cnc(N)nc4)nc12)CCN3

1. 63.3
2. 83
3. 52.1
4. 48.3
